# Test system: NCI-H1975
# Method Summary: Antiproliferative activity against human NCI-H1975 cells assessed as cell growth inhibition incubated for 72 hrs by Cell-TiterGlo assay
# Format: functional
Quantity Kind: GI50 (µM)

Please review the entries below; each comes with its answer.
1. COc1nn(C)cc1Nc1ncc2scc(-c3cccc(N)c3)c2n1    4.49
2. COc1nn(C)cc1Nc1ncc2scc(-c3cccc(NC(=O)[C@H]4CCCN4C4CCOCC4)c3)c2n1    21
3. C[C@H](C(=O)Nc1cccc(-c2csc3cnc(Nc4cccnc4O)nc23)c1)N1CCN(C)CC1    18.5
4. Cc1nn(C)cc1Nc1ncc2scc(-c3cccc(NC(=O)[C@@H](C)N4CCN(C)CC4)c3)c2n1    3.19
5. COc1nn(C)cc1Nc1ncc2scc(-c3cccc(NC(=O)[C@H]4CCCN4C4CCN(C)CC4)c3)c2n1    11

A. COc1nn(C)cc1Nc1ncc2scc(-c3cccc(NS(C)(=O)=O)c3)c2n1
B. COc1nn(C)cc1Nc1ncc2scc(-c3cccc(NC(=O)[C@H]4CCCN4S(C)(=O)=O)c3)c2n1
C. COc1nn(C)cc1Nc1ncc2scc(-c3cccc(NC(=O)[C@@H](C)N4CCN(C5CCOCC5)CC4)c3)c2n1
D. COc1nn(C)cc1Nc1ncc2scc(-c3cccc(NC(=O)[C@@H](C)N4CCN(C(C)C)CC4)c3)c2n1
**Q:** Ordering: ascending GI50. Use the labels to give the ranking in the order requested.
**A:** A, B, D, C
(A: 4.53 µM, B: 8.98 µM, D: 15.4 µM, C: 23.4 µM)
